Provenance of the data: patent US20220177587A1

Biological target: CD28 (human) (UniProt P10747)
Mark Met for reported IL2-luciferase reporter, fold increase in RLU over WT CD80-IgV-Fc at 5.0 nM of 4 fold or greater; mark Not met for anything smaller.

[in] Please check the record CD80 E35D/D46V/M47L/V68M/L85Q/E88D IgV-Fc, (EAAAK)3 linker (Fc fusion) VIHVTKEVKEVATLSCGHNVSVEELAQTRIYWQKDKKMVLTMMSGVLNIWPEYKNRTIFDITNNLSIMILALRPSDEGTYECVVQKYDKDAFKREHLAEVTLSVKADEAAAKEAAAKEAAAK and state if its IL2-luciferase reporter, fold increase in RLU over WT CD80-IgV-Fc at 5.0 nM is at or above 4 fold.
[out] Met

[in] Please check the record CD80 E35D/M47V/N48K/V68M/K89N IgV-Fc, EAAAK linker (Fc fusion) VIHVTKEVKEVATLSCGHNVSVEELAQTRIYWQKDKKMVLTMMSGDVKIWPEYKNRTIFDITNNLSIMILALRPSDEGTYECVVLKYENDAFKREHLAEVTLSVKADEAAAK and state if its IL2-luciferase reporter, fold increase in RLU over WT CD80-IgV-Fc at 5.0 nM is at or above 4 fold.
[out] Met

[in] Please check the record CD80 E35D/D46V/M47L/V68M/L85Q/E88D IgV-Fc, EAAAK linker (Fc fusion) VIHVTKEVKEVATLSCGHNVSVEELAQTRIYWQKDKKMVLTMMSGVLNIWPEYKNRTIFDITNNLSIMILALRPSDEGTYECVVQKYDKDAFKREHLAEVTLSVKADEAAAK and state if its IL2-luciferase reporter, fold increase in RLU over WT CD80-IgV-Fc at 5.0 nM is at or above 4 fold.
[out] Not met

[in] Please check the record CD80 E35D/M47V/N48K/V68M/K89N IgV-Fc, (EAAAK)3 linker (Fc fusion) VIHVTKEVKEVATLSCGHNVSVEELAQTRIYWQKDKKMVLTMMSGDVKIWPEYKNRTIFDITNNLSIMILALRPSDEGTYECVVLKYENDAFKREHLAEVTLSVKADEAAAKEAAAKEAAAK and state if its IL2-luciferase reporter, fold increase in RLU over WT CD80-IgV-Fc at 5.0 nM is at or above 4 fold.
[out] Met

[in] Please check the record CD80 E35D/D46V/M47L/V68M/L85Q/E88D IgV-Fc, GS(G4S)5 linker (Fc fusion) VIHVTKEVKEVATLSCGHNVSVEELAQTRIYWQKDKKMVLTMMSGVLNIWPEYKNRTIFDITNNLSIMILALRPSDEGTYECVVQKYDKDAFKREHLAEVTLSVKADGSGGGGSGGGGSGGGGSGGGGSGGGGS and state if its IL2-luciferase reporter, fold increase in RLU over WT CD80-IgV-Fc at 5.0 nM is at or above 4 fold.
[out] Met
